test system: Shigella flexneri; assay: growth AUC normalised to DMSO control (fraction of control); higher = less growth inhibition, active = hit call of the paper; conditions: 20 µM
Where a name gives a salt, the structure may show the parent alone.
Endpoint label: growth AUC normalised to DMSO control
Form rule: numeric answer, no unit written next to it.

Which growth AUC normalised to DMSO control is reported with Shigella flexneri for this entry: Cn1c(=O)c2c(ncn2C)n(C)c1=O ? 1.04

Ok, now CC[C@H]1OC(=O)[C@H](C)[C@@H](O[C@H]2C[C@@](C)(OC)[C@@H](O)[C@H](C)O2)[C@H](C)[C@@H](O[C@@H]2O[C@H](C)C[C@H](N(C)C)[C@H]2O)[C@](C)(O)C[C@@H](C)[C@@H]2N[C@@H](COCCOC)O[C@H]([C@H]2C)[C@]1(C)O 0.915

Ok, now O=c1[nH]c(=O)n([C@H]2C[C@H](O)[C@@H](CO)O2)cc1F 0.729

Ok, now CC(=O)Oc1ccc(C(c2ccc(OC(C)=O)cc2)c2ccccn2)cc1 1.01

Ok, now COc1ccc2c(c1)C(=O)N(CCc1ccc(S(=O)(=O)NC(=O)NC3CCCCC3)cc1)C(=O)C2(C)C 1.02

Ok, now Nc1c(Br)cc(Br)cc1CN[C@H]1CC[C@H](O)CC1 [Ambroxol hydrochloride] 0.987

Ok, now O=P(O)(O)C(Cl)(Cl)P(=O)(O)O [Clodronate disodium] 0.993

----------
test system: S. enterica typhimurium tolC KO; assay: growth AUC normalised to DMSO control (median) (fraction of control); higher = less growth inhibition, active = hit call of the paper; settings: 20 µM
Where a name gives a salt, the structure may show the parent alone.
So I've got a bunch of compounds here, and I need their growth AUC normalised to DMSO control values.
Form rule: numeric answer, no unit written next to it.

Return reported growth AUC normalised to DMSO control; argument: OC(Cn1cncn1)(Cn1cncn1)c1ccc(F)cc1F 1

Ok, now COCCOC(=O)C1=C(C)NC(C)=C(C(=O)OC/C=C/c2ccccc2)C1c1cccc([N+](=O)[O-])c1 (stereo not drawn) 1.01

Ok, now NC(=O)N1c2ccccc2C=Cc2ccccc21 [Carbamazepine] 0.999

Ok, now Cc1nc2n(c(=O)c1CCN1CCC(c3noc4cc(F)ccc34)CC1)CCCC2O (stereo not drawn) 0.985

Ok, now CC(N)CCCC(C)(C)O (stereo not drawn) [Heptaminol hydrochloride] 0.996

Ok, now O=C1OC(CN2CCOCC2)CN1/N=C/c1ccc([N+](=O)[O-])o1 (stereo not drawn) [Furaltadone hydrochloride] 0.856

Ok, now CC(=O)Oc1ccc(C(c2ccc(OC(C)=O)cc2)c2ccccn2)cc1 1.01

Ok, now C[C@]12CC[C@@H]3c4ccc(O)cc4C[C@@H](CCCCCCCCC[S+]([O-])CCCC(F)(F)C(F)(F)F)[C@H]3[C@@H]1CC[C@@H]2O (stereo partly drawn) 0.998

----------
test system: S. enterica typhimurium WT; test: growth AUC normalised to DMSO control (median) (fraction of control); higher = less growth inhibition, active = hit call of the paper; settings: 20 µM
Counter-ions that a name gives are not always drawn.
So I've got a bunch of compounds here, and I need their growth AUC normalised to DMSO control values.
Form rule: numeric answer, no unit written next to it.

Return reported growth AUC normalised to DMSO control; argument: O=C(O)COCCN1CCN(C(c2ccccc2)c2ccc(Cl)cc2)CC1 (stereo not drawn) [Cetirizine dihydrochloride] 1.01

Ok, now Cc1ccc2c(Cl)cc(Cl)c(O)c2n1 0.982

Ok, now CC[C@@H]([C@H](C)O)n1ncn(-c2ccc(N3CCN(c4ccc(OC[C@@H]5CO[C@@](Cn6cncn6)(c6ccc(F)cc6F)C5)cc4)CC3)cc2)c1=O [Posaconazole hydrate] 1.01

Ok, now COc1cccc(OC)c1C(=O)N[C@@H]1C(=O)N2[C@@H]1SC(C)(C)[C@@H]2C(=O)O [Methicillin sodium] 0.99

Ok, now CC(C)(CO)[C@@H](O)C(=O)NCCC(=O)NCCSSCCNC(=O)CCNC(=O)[C@H](O)C(C)(C)CO 1

Ok, now CCCC(=O)OCOC(=O)C1=C(C)NC(C)=C(C(=O)OC)C1c1cccc(Cl)c1Cl (stereo not drawn) 0.98

Ok, now O=C1NCCN1c1ncc([N+](=O)[O-])s1 0.0321

Ok, now COCCOC(=O)C1=C(C)NC(C)=C(C(=O)OC/C=C/c2ccccc2)C1c1cccc([N+](=O)[O-])c1 (stereo not drawn) 1.01

Attribution: the supplement of paper PMC12350171
